B1: tRNA (parent)
chain: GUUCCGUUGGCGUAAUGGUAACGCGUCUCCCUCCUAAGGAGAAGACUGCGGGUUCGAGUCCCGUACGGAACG

# Variants of: B1
# Experiment Notes: yeast fitness relative to wild type (ratio to wild type); higher = fitter; tRNA-Arg(CCU), competitive growth, 37 C, YPD
Variants at the floor of the assay were thinned out.
Measured Property: yeast fitness
Write no unit; give the number alone.

Illustrative cases are given below, each with its answer.
Mut: U8C A21U U32A C55G
Value Measured: 0.517

Mut: U13C C29G A65U A70U
Value Measured: 0.588

Q: Find the recorded yeast fitness belonging to G9A G50A G67A and report it.
Ans: 0.652

Just for reference, the RNAGym collection of RNA variant scans (doi:10.1126/science.aae0568) is where these values come from.
